- tested-system: GABA B receptor (Rattus norvegicus, UniProt O88871+Q9Z0U4)
- Sequence (Q9Z0U4 whole entry): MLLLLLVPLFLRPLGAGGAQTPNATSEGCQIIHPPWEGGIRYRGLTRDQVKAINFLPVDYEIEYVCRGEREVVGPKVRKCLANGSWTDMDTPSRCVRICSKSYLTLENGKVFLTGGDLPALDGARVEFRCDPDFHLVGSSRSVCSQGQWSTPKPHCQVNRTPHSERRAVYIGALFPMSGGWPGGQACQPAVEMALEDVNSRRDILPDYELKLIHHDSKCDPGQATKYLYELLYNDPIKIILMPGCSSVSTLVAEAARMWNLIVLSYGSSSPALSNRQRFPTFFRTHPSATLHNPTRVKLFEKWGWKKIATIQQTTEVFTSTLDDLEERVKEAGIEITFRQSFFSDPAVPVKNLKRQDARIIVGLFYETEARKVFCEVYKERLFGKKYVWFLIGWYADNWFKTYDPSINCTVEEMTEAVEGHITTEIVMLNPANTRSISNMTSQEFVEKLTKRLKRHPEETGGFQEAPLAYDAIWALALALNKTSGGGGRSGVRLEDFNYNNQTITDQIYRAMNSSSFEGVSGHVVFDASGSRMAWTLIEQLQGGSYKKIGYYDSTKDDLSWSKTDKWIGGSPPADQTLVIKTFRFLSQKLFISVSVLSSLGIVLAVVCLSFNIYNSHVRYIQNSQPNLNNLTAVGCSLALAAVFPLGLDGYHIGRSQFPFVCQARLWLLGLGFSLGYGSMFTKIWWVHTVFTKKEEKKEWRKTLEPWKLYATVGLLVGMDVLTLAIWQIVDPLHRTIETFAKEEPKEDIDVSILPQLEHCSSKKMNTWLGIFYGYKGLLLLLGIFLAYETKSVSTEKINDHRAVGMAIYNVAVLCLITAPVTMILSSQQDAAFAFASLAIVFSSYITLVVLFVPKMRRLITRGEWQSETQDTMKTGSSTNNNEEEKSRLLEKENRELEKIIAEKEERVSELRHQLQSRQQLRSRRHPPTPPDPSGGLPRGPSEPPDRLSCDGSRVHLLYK
- Sequence (O88871 whole entry): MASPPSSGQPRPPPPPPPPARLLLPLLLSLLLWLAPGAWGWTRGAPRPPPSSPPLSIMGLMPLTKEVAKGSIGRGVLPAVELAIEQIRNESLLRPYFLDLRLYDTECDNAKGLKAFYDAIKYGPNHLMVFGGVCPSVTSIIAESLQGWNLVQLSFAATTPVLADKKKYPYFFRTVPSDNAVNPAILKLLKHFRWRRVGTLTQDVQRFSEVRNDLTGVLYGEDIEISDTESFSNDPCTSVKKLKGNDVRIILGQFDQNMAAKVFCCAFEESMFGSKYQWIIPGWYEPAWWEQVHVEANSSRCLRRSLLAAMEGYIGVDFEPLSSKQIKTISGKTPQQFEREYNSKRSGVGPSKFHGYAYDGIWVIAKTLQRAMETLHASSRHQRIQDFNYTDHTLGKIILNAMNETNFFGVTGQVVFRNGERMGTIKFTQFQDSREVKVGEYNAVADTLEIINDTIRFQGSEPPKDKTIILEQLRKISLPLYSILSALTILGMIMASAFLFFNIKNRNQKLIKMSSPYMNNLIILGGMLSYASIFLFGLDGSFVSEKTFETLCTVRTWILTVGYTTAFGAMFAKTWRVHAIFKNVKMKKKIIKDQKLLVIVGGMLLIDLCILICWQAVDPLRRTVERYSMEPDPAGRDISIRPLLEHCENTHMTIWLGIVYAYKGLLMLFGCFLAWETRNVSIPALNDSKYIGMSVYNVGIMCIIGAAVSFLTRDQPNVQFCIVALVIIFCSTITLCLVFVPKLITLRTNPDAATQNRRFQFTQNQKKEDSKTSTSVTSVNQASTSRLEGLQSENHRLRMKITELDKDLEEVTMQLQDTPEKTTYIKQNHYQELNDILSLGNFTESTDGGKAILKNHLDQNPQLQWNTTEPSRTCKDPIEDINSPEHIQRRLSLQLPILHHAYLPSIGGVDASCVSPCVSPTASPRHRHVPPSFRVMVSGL
- test-protocol: Displacement of [3H]baclofen from gamma-aminobutyric-acid B receptor
quantity-name: IC50

Example cases with answers are listed next.
Looking up NCC1(CC(=O)O)CCCc2ccccc21 (stereo unspecified) , I found its IC50 recorded as > 100 µM

According to the records, this molecule NCC(CC(=O)O)c1ccc(Cl)cc1Cl (stereo unspecified) displays IC50 of 11 µM

Reported IC50 for NCC1(CC(=O)O)CCc2ccccc21 (stereo unspecified) was > 100 µM

Noted for NCC1(CC(=O)O)Cc2ccccc21 (stereo unspecified) : its IC50 reads > 100 µM

Reported IC50 ( NCC1(CC(=O)O)CCc2cc(Cl)ccc21 (stereo unspecified) ) = > 100 µM

Please turn your attention to the following entry.
Form field IC50, entry NCC(CC(=O)O)c1c(Cl)cccc1Cl (stereo unspecified) : > 100 µM
